Numbers sourced from patent US20100016401A1.

Catalogue of pIC50 readings, one per entry.
target: human orexin-1 receptor (Homo sapiens)
Sequence (O43613 1-425): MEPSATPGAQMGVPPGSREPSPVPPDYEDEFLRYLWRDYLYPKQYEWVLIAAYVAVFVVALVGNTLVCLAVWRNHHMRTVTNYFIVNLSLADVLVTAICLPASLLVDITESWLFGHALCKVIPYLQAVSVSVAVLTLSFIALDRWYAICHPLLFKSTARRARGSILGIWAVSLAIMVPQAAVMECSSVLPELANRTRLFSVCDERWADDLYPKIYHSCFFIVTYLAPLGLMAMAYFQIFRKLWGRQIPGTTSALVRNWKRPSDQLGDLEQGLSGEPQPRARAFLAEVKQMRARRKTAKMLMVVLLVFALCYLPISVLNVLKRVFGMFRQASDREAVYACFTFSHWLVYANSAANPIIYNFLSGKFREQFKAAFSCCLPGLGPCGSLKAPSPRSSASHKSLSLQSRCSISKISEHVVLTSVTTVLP
test summary: Intracellular calcium measurements (FLIPR), orexin receptor antagonistic activity, OX1
run conditions: CHO cells expressing human orexin-1 receptor, 10 nM orexin-A as agonist
Scale: pIC50 equals -log10([C]), with [C] in mol/L.

// below: answered compounds
| compound | pIC50 |
| --- | --- |
| Cc1nc(C(=O)N2C[C@H]3C[C@H]3[C@H]2CNC(=O)c2cccc3c2OCCO3)c(-c2cccc(C#N)c2)s1 (relative stereo) | 6.85 |
| Cc1nc(C(=O)N2C[C@H]3C[C@H]3[C@H]2CNC(=O)c2ccc(F)cc2)c(-c2cccc(F)c2)s1 (relative stereo) | 6.00 |

Next, consider the following compound.
According to the records, this compound Cc1cccc(-c2sc(C)nc2C(=O)N2C[C@H]3C[C@H]3[C@H]2CNC(=O)c2ccc(F)cc2Cl)c1 (relative stereo) displays pIC50 of 7.12
